TARGET SYSTEM: IT of recombinant HIV-1 (Human immunodeficiency virus type 1 group M subtype B, UniProt P03369)
Construct: purify the IT enzyme of the recombinant HIV-1; made in house; host or cells: yeast cells transformed with the pAB 24/IT-4 vector
ASSAY REMARKS: inhibition of the inverse transcriptase of recombinant HIV-1
Assay type: biochemical
Recorded measurements of IC50, one per entry
Kindly answer with a numeric value in nM, unit omitted.

# COMPOUND, UNIT OF MEASUREMENT, NUMBER
data = [
    ("CCOC(=O)c1c(Sc2cc(C)cc(C)c2)c(CC)c(C)[nH]c1=O [Compound 15]", "nM", 600),
    ("CCc1c(C)nc(O)c(N)c1Sc1cc(C)cc(C)c1 [Compound 8c]", "nM", 15),
    ("CCc1c(C)[nH]c(=O)c([N+](=O)[O-])c1Sc1cc(C)cc(C)c1 [Compound 7c]", "nM", 30),
]

Let me know recorded IC50 for Cc1c(Sc2ccccc2)n(COCc2ccccc2)c(=O)[nH]c1=O [BPT, 1-benzyloxymethyl-6-(phenylthio)thymine, reference compound] , thanks.
400

Let me know recorded IC50 for Cc1cc(C)cc(Sc2c(C)cnc(O)c2N)c1 [Compound 8a] , thanks.
100

Let me know recorded IC50 for CCc1c(Sc2cc(C)cc(C)c2)cc(=O)[nH]c1C [Compound 16] , thanks.
400

Reference source: patent US6015820A
